Every entry's value here was drawn from the supplement of paper PMC10724198.

System: Saccharomyces cerevisiae
assay_protocol: protein stability index of tFT-peptide fusion in deletion strain of DOA10 (PSI (0-1 scale)); higher = more stable (slower turnover)
observed_property: protein stability index

GLYMCSVACWFR = 0.441
RVTRRDAIYFRI = 0.673
AITLPRCPLLLR = 0.662
AITLPMLPLLLR = 0.633
CLVSLPILLFIR = 0.46
CLFSLPILLFFR = 0.581
RSLRVLLFLYFR = 0.45
CLVSLPILLFHR = 0.637
CLWSLPILLFFR = 0.594
AITLPMCPLHLR = 0.68

---

Measured protein stability index, listed per entry.
System: Saccharomyces cerevisiae
assay_protocol: protein stability index of tFT-peptide fusion (C-terminal peptide) (PSI (0-1 scale)); higher = more stable (slower turnover)
experimental_parameters: genetic background: wild type; temperature: 30 C
observed_property: protein stability index

PKFSKPDPLKRD [SAC1 C-terminal 12 aa] = 0.685
RAVTPTGKKGRN [YOR296W C-terminal 12 aa] = 0.658
ISKKYYSRYDKK [OM14 C-terminal 12 aa] = 0.616
RTGSQSPPSSSQ [MED7 C-terminal 12 aa] = 0.673
WRRSKSISTHLR [YLR366W C-terminal 12 aa] = 0.681
AFTTYRAFVEPN [PMI40 C-terminal 12 aa] = 0.677
NNNMESFPEMSP [GLE1 C-terminal 12 aa] = 0.72
AFGNGFNSSIRW [NRP1 C-terminal 12 aa] = 0.68
DSVIVVLKTPVE [SMD2 C-terminal 12 aa] = 0.658
DDGIATYNNTQG [KNS1 C-terminal 12 aa] = 0.72
KNIKRDLRNVRI [TAX4 C-terminal 12 aa] = 0.651
VSNLEVLEELFP [DPI35 C-terminal 12 aa] = 0.712
DGPKFTFKRRKG [XRS2 C-terminal 12 aa] = 0.778
ATICSVAFVKQN [EFM4 C-terminal 12 aa] = 0.224
NVTKLAKERVLF [CPA1 C-terminal 12 aa] = 0.703
TSPIGEFQSIKH [SPT21 C-terminal 12 aa] = 0.674
DDILSHGFEPLA [HTC1 C-terminal 12 aa] = 0.706
MQTHYILMKAQW [PPM1 C-terminal 12 aa] = 0.535
ESSSPSQLQHEA [PHO84 C-terminal 12 aa] = 0.682
KDNTVDIYDVNG [TGS1 C-terminal 12 aa] = 0.682
ISWLEKMKKFFH [MAM33 C-terminal 12 aa] = 0.693
RRIIESINKSQG [HAT1 C-terminal 12 aa] = 0.675
QQEQDKKKKSNH [PRE6 C-terminal 12 aa] = 0.49
SLIDAKTGLPKE [MVD1 C-terminal 12 aa] = 0.706
TLSKEPFLVFSF [YDL185C-A C-terminal 12 aa] = 0.494

---

System: Saccharomyces cerevisiae
assay_protocol: protein stability index of tFT-peptide fusion (C-terminal peptide) (PSI (0-1 scale)); higher = more stable (slower turnover)
experimental_parameters: genetic background: wild type; temperature: 30 C
Measured protein stability index, listed per entry.
observed_property: protein stability index

LLHHSSVSFFSL = 0.71
PTPLPSPCPAPP = 0.703
PSPLRRSTPPCL = 0.709
NAYRYFLNKQNR = 0.697
TSIDRLLIRYEK = 0.649
DSKDLTPATQVS = 0.699
GQQVDKMLWDEV = 0.715
PDVFIWIRPLLP = 0.628
GGCGGVCGACVV = 0.695
SRCSEPVGGGGA = 0.704
KKTQKKKKLIPQ = 0.705
SFARPNTRALPT = 0.656
AGVVARTRRDGG = 0.708
IETQKNNKLRRL = 0.699
MESGKILGCCGI = 0.684
ILLPLRHHSFSD = 0.643
PPLPPPFSPLPP = 0.686
RWGGVVRGCSGG = 0.687
GQQILGGRSLEG = 0.63
IAATTVVRPAFC = 0.66
LGVVVGGVRGVG = 0.448
AGARLEWVVAGR = 0.754
SAKARTNHAFQF = 0.678
GCGGGGGAWKGV = 0.751
VVKEGGGCREGR = 0.64
DSSLHRLASLKT = 0.643
FPPTGPPYFPPT = 0.615
PSRVRPLRLVLP = 0.614
RLSRPPRIPRSQ = 0.654
PRLSGLFLAPPS = 0.707
GWGGSTLRGVRR = 0.719
LGSVLSLVRFGR = 0.677
VSGFPHASSSPT = 0.623
SGLLSPHTHMFP = 0.598
SLSPVFVAVWFL = 0.432
ISVSVVFFVLRF = 0.396
MEGNQTSVRGRT = 0.677
PPTPPLVPPTRH = 0.739
LAAVAAGDVGGG = 0.674
PPPLSSPPPRPL = 0.709
SLVLLLLITFSL = 0.491
